Species: Bos taurus
Test Method Notes: Inhibition of bovine trypsin assessed as protease activity using D-CHA-AR-AMC as substrate at 1 uM by fluorescence assay relative to control
Design: scale not given: the % may be the effect or the level left
The following compounds are listed with their measured Activity values.
Record the value in %, omitting the unit from your answer.

N=C(N)Nc1cccc(C(=O)Oc2ccc(CC(=O)O)n3ncnc23)c1: 1.21
N=C(N)Nc1ccc(C(=O)Oc2ccc(Cc3nn[nH]n3)n3ncnc23)cc1: 100

Problem: # Activity lookup, item N=C(N)Nc1ccc(C(=O)Oc2cc(CC(=O)O)cn3ncnc23)cc1
Solution: 100

Problem: Find the recorded Activity belonging to C/N=C(\NC)Nc1ccc(C(=O)Oc2ccc(CC(=O)O)n3ncnc23)cc1 and report it.
Solution: 0.59

Problem: Which Activity is listed for Cc1cc(NC(=N)N)ccc1C(=O)Oc1ccc(CC(=O)O)n2ncnc12 ?
Solution: 49

Problem: What value of measured Activity is listed for N=C(N)Nc1ccc(C(=O)Oc2ccc(CC(=O)N[C@@H](CC(=O)O)C(=O)O)n3ccnc23)cc1 ?
Solution: 100

Problem: Entry N=C(N)Nc1ccc(C(=O)Oc2ccc(C3OC(=O)NC3=O)n3ncnc23)cc1 (stereo not drawn) : reported Activity = ?
Solution: 100

Problem: Can you share its Activity? I mean this compound: CONC(=N)c1ccc(C(=O)Oc2ccc(CC(=O)O)n3ncnc23)cc1
Solution: -3.33

====

Organism: Bos taurus
Test Method Notes: Inhibition of bovine trypsin assessed as protease activity using D-CHA-AR-AMC as substrate at 0.1 uM by fluorescence assay relative to control
Design: scale not given: the % may be the effect or the level left
Mark condition met only for Activity values smaller than 10%; exact matches and larger values are condition not met.

Sample answers from the record:
C#CCOCCOCC#Cc1ccc(CC(=O)O)n2ncnc12: condition not met
C/N=C(\NC)Nc1ccc(C(=O)Oc2ccc(CC(=O)O)n3ncnc23)cc1: condition met
N=C(N)Nc1ncc(C(=O)Oc2ccc(CC(=O)O)n3ncnc23)cn1: condition not met

Problem: # strict comparison: is reported Activity < 10%? input = N=C(N)Nc1ccc(C(=O)Oc2ccc(CC(=O)O)n3ncnc23)c2ccoc12
Solution: condition not met

Problem: Given the entry CONC(=N)c1ccc(C(=O)Oc2ccc(CC(=O)O)n3ncnc23)cc1 , would its reported Activity be below 10%?
Solution: condition met

====

Organism: Bos taurus
Test Method Notes: Inhibition of bovine trypsin assessed as protease activity using D-CHA-AR-AMC as substrate at 0.1 uM by fluorescence assay relative to control
Set-up: scale not given: the % may be the effect or the level left
Could you please mark met for values of Activity below 10% and not met for values at or above it?

As a guide, the following entries are already answered.
N=C(N)Nc1ccc(C(=O)Oc2ccc(CC(=O)O)n3ncnc23)cc1O: not met
N=C(N)Nc1ccc(C(=O)Oc2ccc(CC(=O)NC(CC(=O)O)(CC(=O)O)CC(=O)O)n3ncnc23)cc1: not met
N=C(N)Nc1ccc(C(=O)Oc2ccc(CC(=O)O)n3ncnc23)c(Cl)c1: not met
N=C(N)Nc1ccc(C(=O)Oc2ccc(CC(=O)N[C@@H](CC(=O)O)C(=O)O)n3ncnc23)cc1: not met

Continue with the molecule presented below.
Problem: Field: below-cutoff. Rule: recorded Activity strictly less than 10%. Subject: N#Cc1cc(C(=O)Oc2ccc(CC(=O)O)n3ncnc23)ccc1NC(=N)N
Solution: met
